Exercise: for every item that follows, state its recorded shrunken log2 fold change.
Test system: Escherichia coli TOP10
Assay: shrunken log2 fold change of peptide-encoding DNA abundance (4.5 h post-induction vs induction); higher = less antimicrobial activity (less host growth inhibition)
Details: time post-induction: 4.5 h; library: site-saturation at positions 5, 18, 19, 20

residue_codes | measured
RRIRVRPPRLPRPRPRPLEEPRP | 0.0793
RRIRDRPPRLPRPRPRPHQWPRP | 0.031
RRIRNRPPRLPRPRPRPMLLPRP | -0.0366
RRIRHRPPRLPRPRPRPNMIPRP | -0.928

Go through the list and state shrunken log2 fold change for each entry.
1. RRIRIRPPRLPRPRPRPQRKPRP
2. RRIRNRPPRLPRPRPRPYVRPRP
3. RRIRSRPPRLPRPRPRPAKRPRP
4. RRIRDRPPRLPRPRPRPPVCPRP
5. RRIRMRPPRLPRPRPRPYIYPRP
6. RRIRVRPPRLPRPRPRPFSMPRP
7. RRIRYRPPRLPRPRPRPYARPRP
8. RRIRERPPRLPRPRPRPMFDPRP

# output
1. -0.104
2. -0.451
3. 0.214
4. 0.452
5. -0.384
6. -0.0688
7. -0.0987
8. -0.121

Give me shrunken log2 fold change for each of these sequences, listed below.
1. RRIRMRPPRLPRPRPRPSCHPRP
2. RRIRTRPPRLPRPRPRPSKCPRP
3. RRIRKRPPRLPRPRPRPGVRPRP
4. RRIRGRPPRLPRPRPRPVDAPRP
5. RRIRLRPPRLPRPRPRPQKGPRP
6. RRIRDRPPRLPRPRPRPRRTPRP

# output
-0.0523
-0.535
1.16
0.395
-0.183
0.186

Give measured shrunken log2 fold change for every item shown.
1. RRIRPRPPRLPRPRPRPVKHPRP
2. RRIRVRPPRLPRPRPRPMQKPRP
3. RRIRFRPPRLPRPRPRPLGCPRP
4. RRIRERPPRLPRPRPRPDIVPRP
5. RRIRSRPPRLPRPRPRPFMGPRP
6. RRIRCRPPRLPRPRPRPSQRPRP
7. RRIRQRPPRLPRPRPRPASQPRP

# output
1: -0.0566; 2: 0.533; 3: 0.121; 4: -0.158; 5: -0.216; 6: -0.54; 7: 0.0572

Please give shrunken log2 fold change for each item listed below.
1. RRIRKRPPRLPRPRPRPRACPRP
2. RRIRMRPPRLPRPRPRPIKGPRP
3. RRIRKRPPRLPRPRPRPPWNPRP

# output
[0.474, -0.0612, 0.136]

====

Tested on: Escherichia coli TOP10;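 also: peptides expressed intracellularly from a pBAD plasmid library in pooled LB shake-flask culture, induced with 0.3% L-arabinose, DNA abundance read by NGS, three biological replicates, DESeq2 with apeglm shrinkage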
Test: shrunken log2 fold change of peptide-encoding DNA abundance (4.5 h post-induction vs induction); higher = less antimicrobial activity (less host growth inhibition)
Details: time post-induction: 4.5 h; library: site-saturation at positions 5, 18, 19, 20
Would you please tag the item fulfilled when its shrunken log2 fold change is -0.2 or above, and not fulfilled when it is below?

residue_codes | system_under_test | assigned_label
RRIRERPPRLPRPRPRPTQMPRP | Escherichia coli TOP10 | fulfilled

# input Say whether `RRIRWRPPRLPRPRPRPISCPRP` shows shrunken log2 fold change of -0.2 or more.
# output fulfilled

# input Hi team, for `RRIRYRPPRLPRPRPRPSAEPRP` , is the recorded shrunken log2 fold change at or above -0.2?
# output fulfilled

# input Quick check, shrunken log2 fold change >= -0.2? `RRIRARPPRLPRPRPRPMTTPRP`
# output fulfilled

# input Decide: is the reported value of shrunken log2 fold change for `RRIRYRPPRLPRPRPRPPKTPRP` equal to or greater than -0.2?
# output not fulfilled

# input State whether the measured shrunken log2 fold change reaches -0.2, counting equality as reaching it, for `RRIRNRPPRLPRPRPRPLKHPRP`
# output not fulfilled
